Listed here are compounds together with their documented TGI.
test system: NCI-H23 lung; assay: NCI tumour cell line growth inhibition, 48 h
value-kind: TGI

INSERT INTO measurements (compound, value_kind, result) VALUES
  ('CCc1oc2ccc(OC)c3c2c1C=CC=C3', 'TGI', '> 100 µM'),
  ('O=C(/N=C/c1c(O)c2ccccc2oc1=O)NC1CCCCC1', 'TGI', '> 100 µM'),
  ('Cc1sc(/N=C2/NC(=O)CS2)nc1-c1nc(/N=C2/NC(=O)CS2)sc1C', 'TGI', '> 50 µM'),
  ('O=C1c2ccccc2C(=O)c2c(NC(=O)c3ccc4c5c(ncnc35)-c3ccccc3C4=O)cccc21', 'TGI', '> 100 µM'),
  ('CCOc1cc(/C=N\NC(=O)N/N=C/c2ccc(O)c(OCC)c2)ccc1O', 'TGI', '> 100 µM'),
  ('Cc1cc(Br)cc(C)c1NC(=O)C(=O)C1C(=O)C(CC2C(=O)c3ccccc3C2=O)C(=O)CC1(C)C (stereo unspecified)', 'TGI', '> 100 µM'),
  ('Cn1c2c(cc(-c3ccccc3)c1=O)COc1ccccc1-2', 'TGI', '> 100 µM'),
  ('CN(NC(=O)c1cccs1)C1=NCCN1', 'TGI', '> 100 µM'),
  ('COC(=O)/C(=C\C(=O)c1ccc(Br)cc1)NN=C(c1ccccc1)c1ccccc1', 'TGI', '> 10 µM'),
  ('CC(=O)N[C@@H](Cc1ccc(OP(=O)(O)O)cc1)C(=O)N[C@H]1CCC(=O)N2CCC[C@@H](C(=O)NCc3ccc(O)cc3)N2C1=O', 'TGI', '> 25 µM'),
  ('CCOC(=O)[C@H]1C[C@]23CN(C(=O)OC(C)(C)C)CC[C@H]2CCC2(SCCCS2)[C@@H]3N1C', 'TGI', '> 100 µM');

Measured values drawn from PubChem BioAssay (NCI) for this set.
